- System: P. aeruginosa
- procedure_details: AK assay 384-well format, Prestwick library screening
- Assay type: cell-based, Pseudomonas aeruginosa
- settings: Pseudomonas aeruginosa, 3 h, planktonic P. aeruginosa; 50 μM final drug concentration; […]; read-out: AK-based Prestwick Library Screening Results, P. aeruginosa (increase in extracellular AK activity)
Where a name gives a salt, the structure may show the parent alone.
Listed here: items and their measured fold induction at 50 µM.
# respond with the number and nothing more

Cc1cccc(C)c1N=C1NCCCS1: 0.9
NCCC(=O)NCCc1c[nH]cn1: 0.8
COc1ccc2c(c1OC)C(=O)O[C@@H]2[C@H]1c2cc3c(cc2CCN1C)OCO3 [Hydrastine hydrochloride]: 0.9

# ---- query molecule ----
Query "CCCCc1ccc(C(=O)O)nc1" yields fold induction at 50 µM of 1.1
